- Run description: Half life in human plasma
- Type: ADME, cell-free
Measured parameter: half-life

Per the records, this molecule ( Nc1ccn([C@@H]2O[C@H](CO)[C@@H](O)C2(F)F)c(=O)n1 [GEMCITABINE] ) has half-life equal to 9 to 13 min
